- assay-text: Solubility of crystal forms in different environments
- Format: physicochemical
- measurement-parameters: pH 4.5 acetic acid-sodium acetate solution, 37 °C, pH 4.5, aqueous buffer, thermodynamic from solid, pH 4.5 acetic acid-sodium acetate solution; 37° C.; read-out: solubility
value-kind: solubility

Consider the molecule shown here: COc1ncc(-c2ccc3ncc(C#N)c(N4CCOC[C@H]4C)c3c2)cc1NS(C)(=O)=O [crystal form I] What is its recorded solubility?
1.67 µg/mL

====

- assay-text: Solubility of crystal forms in different environments
- Format: physicochemical
- measurement-parameters: simulated fasting intestinal fluid (FaSSIF), fassif, thermodynamic from solid, Simulated fasting intestinal fluid (FaSSIF); Ultrasonic; read-out: solubility
value-kind: solubility (µg/mL)
Report the value in µg/mL with no unit label.

Consider the compound shown here: COc1ncc(-c2ccc3ncc(C#N)c(N4CCOC[C@H]4C)c3c2)cc1NS(C)(=O)=O [crystal form I] What is its recorded solubility?
4.76

====

- assay-text: Solubility of crystal forms in different environments
- Format: physicochemical
- measurement-parameters: pH 6.8 PBS solution, 25 °C, pH 6.8, aqueous buffer, thermodynamic from solid, pH 6.8 PBS solution; R.T. (25° C.); read-out: solubility
value-kind: solubility (µg/mL)
Report the value in µg/mL with no unit label.

Consider the compound shown here: COc1ncc(-c2ccc3ncc(C#N)c(N4CCOC[C@H]4C)c3c2)cc1NS(C)(=O)=O [crystal form I] What is its recorded solubility?
3.58

====

- assay-text: Solubility of crystal forms in different environments
- Assay type: physicochemical
- measurement-parameters: simulated postprandial intestinal fluid (FeSSIF), 75 °C, fessif, thermodynamic from solid, Simulated postprandial intestinal fluid (FeSSIF); 75° C.; read-out: solubility
value-kind: solubility (µg/mL)
Report the value in µg/mL with no unit label.

Consider the compound shown here: COc1ncc(-c2ccc3ncc(C#N)c(N4CCOC[C@H]4C)c3c2)cc1NS(C)(=O)=O [crystal form I] What is its recorded solubility?
18.9

====

- assay-text: Solubility of crystal forms in different environments
- Type: physicochemical
- measurement-parameters: water, 75 °C, water, thermodynamic from solid, Water; 75° C.; read-out: solubility
value-kind: solubility (µg/mL)
Report the value in µg/mL with no unit label.

Consider the compound shown here: COc1ncc(-c2ccc3ncc(C#N)c(N4CCOC[C@H]4C)c3c2)cc1NS(C)(=O)=O [crystal form I] What is its recorded solubility?
2.24
